Provide the reported growth of each item.
Test system: RPMI-8226 leukemia
measurement.description: NCI-60 one-dose screen, 48 h (100 = growth as untreated, 0 = no growth, -100 = all killed)
stated.conditions: 10 µM unless noted
Compounds without any hit were thinned out: in the full panel of roughly 83,000, 20% have a hit.
Respond with the bare value in %.

Qu. Field: growth (RPMI-8226 leukemia). Entry: "O=C(N/N=C/c1ccc([N+](=O)[O-])o1)c1ccc(O)cc1"
Ans. 39.8

Qu. How about this molecule: "CCOC(=O)c1ccc2c(c1)nc(-c1ccc(Cl)cc1)n2-c1cc(C(C)(C)C)[nH]n1"
Ans. 75.6

Qu. How about this molecule: COc1cc(C2CC(c3ccc(Cl)cc3)=NN2C(C)=O)ccc1Oc1ccnc2cc(Cl)ccc12 (stereo not drawn)
Ans. 87.3

Qu. How about this molecule: COc1cc(C2CC(c3ccc(C)cc3)=NN2C=O)ccc1Oc1nc2c(c(=O)n(C)c(=O)n2C)n1C (stereo not drawn)
Ans. 72.1

Qu. How about this molecule: "Cc1c(C(=O)Nc2ccccc2F)sc2c(=O)[nH]cnc12"
Ans. 96.7

Qu. How about this molecule: "O=[N+]([O-])c1ccc(N=Nc2c(NNc3ccc([N+](=O)[O-])cn3)cc(S(=O)(=O)O)c3ccccc23)nc1"
Ans. 90

Qu. How about this molecule: "CCOCCNc1ccc(S(=O)(=O)c2ccc(N)cc2)cc1N"
Ans. 92.9

Qu. How about this molecule: "COc1cc2ncnc(Nc3ccc(S(=O)(=O)Nc4nccs4)cc3)c2cc1OCCCN1CCOCC1"
Ans. 106

Qu. How about this molecule: "CN1CCCN(CCNc2nccc(-c3c(-c4cccc(O)c4)nc4sccn34)n2)S1(=O)=O"
Ans. 81.7

Qu. How about this molecule: "CCCCCCCCCCCCCCCC1=NCCN1"
Ans. 40.8

Qu. How about this molecule: "O/N=C/c1ccncc1"
Ans. 94

Qu. How about this molecule: COc1cc2c(c(OC)c1O)C(=O)C(OC)C(c1ccc(O)c(O)c1)O2 (stereo not drawn)
Ans. -19.3

Qu. How about this molecule: "CC(C)(c1ccccc1)c1cc(O)c(C(C)(C)c2ccccc2)cc1O"
Ans. 9.65
